Origin of values: paper PMC4740242

Test system: Ba/F3 cells expressing T674I FIP1L1-PDGFRα
Assay: cells
Settings: Mus musculus, BaF3, 24 h, read-out: IC50 cell growth/viability
The reader will find reported pIC50 values listed item by item below.
Would you please state pIC50, meaning minus log10 of the concentration in mol/L, as a bare number?

stdin: Any idea what its pIC50 is? The molecule is CCN(CC)CCNC(=O)c1c(C)[nH]c(/C=C2\C(=O)Nc3ccc(F)cc32)c1C [sunitinib]
stdout: 7.34

---

System: Ba/F3 cells expressing T674I FIP1L1-PDGFRα
Test: cells
Details: Mus musculus, BaF3, 24 h, read-out: IC50 cell growth/viability
readout name: pIC50
Would you please state pIC50, meaning minus log10 of the concentration in mol/L, as a bare number?

Worked cases, pIC50 given:
- compound: "Cc1ccc(Nc2nccc(N(C)c3ccc4c(C)n(C)nc4c3)n2)cc1S(N)(=O)=O [pazopanib]"
  pIC50: 5.50
- compound: "C#Cc1cccc(Nc2ncnc3cc(OCCOC)c(OCCOC)cc23)c1 [erlotinib]"
  pIC50: 5.79

Now let's try a different one.
stdin: Any idea what its pIC50 is? The compound is CNC(=O)c1cc(Oc2ccc(NC(=O)Nc3ccc(Cl)c(C(F)(F)F)c3)cc2)ccn1 [sorafenib]
stdout: 6.84
